Target: recombinant human XT-I (Homo sapiens)
Sequence (Q86Y38 252-959 limits assumed): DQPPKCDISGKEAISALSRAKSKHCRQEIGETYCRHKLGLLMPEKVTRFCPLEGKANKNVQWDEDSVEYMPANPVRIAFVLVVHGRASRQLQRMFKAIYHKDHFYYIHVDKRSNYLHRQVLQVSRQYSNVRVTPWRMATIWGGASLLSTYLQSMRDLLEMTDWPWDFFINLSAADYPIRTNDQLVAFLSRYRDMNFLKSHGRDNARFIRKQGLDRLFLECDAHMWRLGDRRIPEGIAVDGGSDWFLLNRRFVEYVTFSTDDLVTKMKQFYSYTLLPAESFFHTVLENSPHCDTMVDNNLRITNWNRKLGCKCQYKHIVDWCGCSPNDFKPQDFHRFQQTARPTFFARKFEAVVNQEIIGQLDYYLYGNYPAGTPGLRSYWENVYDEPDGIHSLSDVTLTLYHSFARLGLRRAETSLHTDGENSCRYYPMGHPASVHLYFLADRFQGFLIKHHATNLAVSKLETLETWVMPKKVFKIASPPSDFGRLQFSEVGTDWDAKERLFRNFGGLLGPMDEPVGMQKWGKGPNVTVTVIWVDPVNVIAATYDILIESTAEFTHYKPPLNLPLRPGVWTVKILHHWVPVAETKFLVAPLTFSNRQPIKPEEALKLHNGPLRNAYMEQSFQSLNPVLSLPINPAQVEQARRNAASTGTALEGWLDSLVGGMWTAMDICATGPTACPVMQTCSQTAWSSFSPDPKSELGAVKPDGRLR
Experiment: NP library inhibitor screening, UPLC/ESI-MS/MS XT-I assay
Type: biochemical
Conditions: Table S1; 50 μM inhibitor; relative to negative control containing DMSO; technical duplicates
Listing of entries alongside the reported XT-I Activity [%].
Only the number, expressed in %, is required.

Return reported XT-I Activity [%]; argument: CN(N=O)C(=O)N[C@H]1C(O)O[C@H](CO)[C@@H](O)[C@@H]1O (mixture of isomers) [Compound 3, Streptozotocin (STZ)] 101

Next compound up: COc1cc(NS(=O)(=O)c2ccc(N)cc2)nc(OC)n1 [Compound 91, Sulphadimethoxine] 132

Next compound up: O=c1[nH]cc(F)c(=O)[nH]1 [Compound 78, Fluorouracil (5-Fluoracil, 5-FU)] 137

Next compound up: C[C@@H]1[C@H](O)[C@@H](C)/C=C/C=C/CC/C=C/C=C/C=C/C=C/[C@H](O[C@H]2O[C@@H](C)[C@H](O)[C@@H](N)[C@H]2O)C[C@@H]2O[C@](O)(C[C@@H](O)[C@H](O)CC[C@@H](O)C[C@@H](O)C[C@@H](O)CC(=O)O[C@H]1C)C[C@H](O)[C@H]2C(=O)O [Compound 44, Nystatin (Fungicidin)] 52

# input for lookup
Return reported XT-I Activity [%]; argument: COc1cc2c(cc1O)CC[C@@H]1[C@@H]2CC[C@]2(C)[C@@H](O)CC[C@@H]12 [Compound 24, 2-Methoxyestradiol (2-MeOE2)] 114
